Molecular target: T1, Porcine carboxypeptidase B (pCPB1) (porcine, UniProt P09955 111-416)
T1 construct: Porcine carboxypeptidase B (CPB1), purchased active enzyme; also called porcine CPB1; source: bought: Sigma
T1 sequence (looked up): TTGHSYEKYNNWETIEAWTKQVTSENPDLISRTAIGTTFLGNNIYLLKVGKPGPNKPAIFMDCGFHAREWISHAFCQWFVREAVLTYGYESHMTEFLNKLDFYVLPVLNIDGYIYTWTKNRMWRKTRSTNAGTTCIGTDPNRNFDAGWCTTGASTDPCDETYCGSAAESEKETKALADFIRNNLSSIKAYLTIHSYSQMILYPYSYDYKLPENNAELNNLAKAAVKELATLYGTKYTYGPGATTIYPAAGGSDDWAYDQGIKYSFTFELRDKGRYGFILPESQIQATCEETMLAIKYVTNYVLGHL
Assay: enzyme inhibition kinetics (tight-binding inhibitor, Morrison equation); CPBs: inhibition of hydrolysis of N-(4-methoxyphenylazoformyl)-Arg-OH (0.1 mM) at 355 nm; 20 mM Tris-HCl pH 7.5, 1% v/v DMSO, 0.05% w/v Brij-35, 0.1 M NaCl; 37 °C; enzyme constant (6.0 nM hCPB1 and pCPB1), increasing amounts of inhibitor
Settings: both partners purified
pKi: −log10 of the molar value. Bridges are numbered along the chain shown (N, C = ends). Where no end group is shown, it is not given here.
Form field: pKi (one value per entry).

{"columns": ["Binder", "pKi"],
 "data": [
  ["des(15–51) NvCI folding/unfolding intermediate (natural protein, Nerita versicolor, UniProt P86912 1-53, looked up, disulfide 9-23, 27-38; cysteine pairing not given here, differs only in the missing Cys15-Cys51 disulfide; also called intermediate IIb; fraction IIb) FHVPDDRPCINPGRCPLVPDATCTFVCKAADNDFGYECQHVWTFEGQRVGCYA", 8.31],
  ["Nerita versicolor carboxypeptidase inhibitor (NvCI), native (natural protein, UniProt P86912 1-53, looked up, disulfide 15-51, 9-23, 27-38, comprises 53 residues, C-terminal tail Cys51-Tyr52-Ala53; also called native NvCI; 3S-S native form; source: Pichia pastoris, secreted into the extracellular medium, purified (ion exchange, size exclusion); repurified by RP-HPLC) FHVPDDRPCINPGRCPLVPDATCTFVCKAADNDFGYECQHVWTFEGQRVGCYA", 9.28]
]}
